test system: LG0703-F948-PDC complex spheroid viability; test: Anticancer human tumor LG0703-F948-PDC patient-derived lung adenocarcinoma cell line growth inhibition [RAS]; conditions: second compound 0.00949 µM; first compound 3.16 µM; hits give low values
Answer each item with its documented viability, T/C.
Answer in %, number only, no unit symbol.

Please state recorded viability, T/C (tested on LG0703-F948-PDC complex spheroid viability) of Cc1nc(N2CCC3(CC2)COC(C)C3N)c(CO)nc1Sc1ccnc(N)c1Cl (centres undefined) + CCn1c(-c2cccnc2C(C)OC)c2c3cc(ccc31)N1CCOC(CC(NC(=O)C(C(C)C)N(C)C(=O)C3(F)CCN(C(=O)C#CC(C)(C)N(C)C)CC3)C(=O)N3CCCC(N3)C(=O)OCC(C)(C)C2)C1
21.5

Please state recorded viability, T/C (tested on LG0703-F948-PDC complex spheroid viability) of C[C@@H](NC(=O)c1ncnc(N)c1Cl)c1ncc(C(=O)Nc2cc(C(F)(F)F)c(Cl)cn2)s1 + CCn1c(-c2cc(N3CCN(C)CC3)cnc2C(C)OC)c2c3cc(ccc31)-c1csc(n1)CC(NC(=O)C1CC1C)C(=O)N1CCCC(N1)C(=O)OCC(C)(C)C2
33.8

Please state recorded viability, T/C (tested on LG0703-F948-PDC complex spheroid viability) of C[C@@H](NC(=O)c1ncnc(N)c1Cl)c1ncc(C(=O)Nc2cc(C(F)(F)F)c(Cl)cn2)s1 + CCn1c(-c2cccnc2C(C)OC)c2c3cc(ccc31)N1CCOC(CC(NC(=O)C(C(C)C)N(C)C(=O)C3(F)CCN(C(=O)C#CC(C)(C)N(C)C)CC3)C(=O)N3CCCC(N3)C(=O)OCC(C)(C)C2)C1
92.3

Please state recorded viability, T/C (tested on LG0703-F948-PDC complex spheroid viability) of CC1(O)CCCC1n1c(=O)c(C(F)F)cc2cnc(NC3CCN(S(C)(=O)=O)CC3)nc21 (centres undefined) + CCn1c(-c2cccnc2C(C)OC)c2c3cc(ccc31)N1CCOC(CC(NC(=O)C(C(C)C)N(C)C(=O)C3(F)CCN(C(=O)C#CC(C)(C)N(C)C)CC3)C(=O)N3CCCC(N3)C(=O)OCC(C)(C)C2)C1
87.5

* * *

system: LG0703-F948-PDC complex spheroid viability; experiment: Anticancer human tumor LG0703-F948-PDC cell line growth inhibition [RAS]; details: second compound 0.00316 µM; first compound 10 µM; hits give low values;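 also: spheroids exposed to agents for 7 days; 100% = DMSO vehicle wells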
Answer each item with its documented viability, T/C.
Answer in %, number only, no unit symbol.

Report viability, T/C for CC(C)NCC(C(=O)N1CCN(c2ncnc3c2C(C)CC3O)CC1)c1ccc(Cl)cc1 (stereo unspecified) + C=CC(=O)N1CCN(c2nc(OCC3CCCN3C)nc3c(F)c(-c4nc(N)cc(C)c4C(F)(F)F)c(Cl)cc23)C(C)C1 please.
21.6

Report viability, T/C for CC(=O)OC12COC1CC(O)C1(C)C(=O)C(O)C3=C(C)C(OC(=O)C(O)C(NC(=O)OC(C)(C)C)c4ccccc4)CC(O)(C(OC(=O)c4ccccc4)C21)C3(C)C (stereo unspecified) + C=CC(=O)N1CCN(c2nc(OCC3CCCN3C)nc3c(F)c(-c4nc(N)cc(C)c4C(F)(F)F)c(Cl)cc23)C(C)C1 please.
27.1

Report viability, T/C for NC1c2ccccc2OC12CCN(c1cnc3c(N4CCCc5ncccc54)n[nH]c3n1)CC2 (stereo unspecified) + C=CC(=O)N1CCN(c2nc(OCC3CCCN3C)nc3c(F)c(-c4nc(N)cc(C)c4C(F)(F)F)c(Cl)cc23)C(C)C1 please.
2.7

Report viability, T/C for C[C@@H](NC(=O)c1ncnc(N)c1Cl)c1ncc(C(=O)Nc2cc(C(F)(F)F)c(Cl)cn2)s1 + C=CC(=O)N1CCN(c2nc(OCC3CCCN3C)nc3c(F)c(-c4nc(N)cc(C)c4C(F)(F)F)c(Cl)cc23)C(C)C1 please.
93

Report viability, T/C for CC1(O)CCCC1n1c(=O)c(C(F)F)cc2cnc(NC3CCN(S(C)(=O)=O)CC3)nc21 (stereo unspecified) + C=CC(=O)N1CCN(c2nc(OCC3CCCN3C)nc3c(F)c(-c4nc(N)cc(C)c4C(F)(F)F)c(Cl)cc23)C(C)C1 please.
14.1

Report viability, T/C for CC(Nc1ccc2c(c1)OCCn1cc(N3C(=O)OCC3C(F)F)nc1-2)C(N)=O (stereo unspecified) + C=CC(=O)N1CCN(c2nc(OCC3CCCN3C)nc3c(F)c(-c4nc(N)cc(C)c4C(F)(F)F)c(Cl)cc23)C(C)C1 please.
14.8
